Target: bovine serum albumin (BSA) (Bos taurus, UniProt P02769)
Sequence (P02769 25-607): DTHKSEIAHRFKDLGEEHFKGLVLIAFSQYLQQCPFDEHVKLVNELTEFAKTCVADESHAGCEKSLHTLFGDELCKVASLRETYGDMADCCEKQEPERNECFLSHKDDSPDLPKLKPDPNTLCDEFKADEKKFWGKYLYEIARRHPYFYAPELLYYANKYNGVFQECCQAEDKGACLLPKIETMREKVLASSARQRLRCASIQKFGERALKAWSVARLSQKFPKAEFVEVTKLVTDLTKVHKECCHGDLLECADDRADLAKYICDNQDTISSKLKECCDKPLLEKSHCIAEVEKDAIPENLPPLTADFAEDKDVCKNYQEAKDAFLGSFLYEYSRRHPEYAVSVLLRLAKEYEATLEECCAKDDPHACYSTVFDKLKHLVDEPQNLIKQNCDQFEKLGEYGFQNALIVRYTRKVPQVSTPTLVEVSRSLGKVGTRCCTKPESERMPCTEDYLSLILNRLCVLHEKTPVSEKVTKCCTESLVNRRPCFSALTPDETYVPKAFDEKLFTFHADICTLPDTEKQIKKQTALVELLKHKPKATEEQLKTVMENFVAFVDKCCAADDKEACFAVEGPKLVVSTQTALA
Assay: Fluorescence anisotropy specificity test, BSA
Type: binding
Numbered stars: 1 amine (or outer) side, 2 acyl side, 3 side chain; on linkers, the order of the positions; unused ones are H or OH. Bridge positions count the residues as written; N and C are the ends. Square brackets hold non-standard residues; d marks the D form. Peptide text beside a SMILES is read from it. Trimesoyl = O=C(c1cc(C(=O)[*:2])cc(C(=O)[*:3])c1)[*:1]; Nle = CCCC[C@H](N)C(=O)O; Dap = NC[C@H](N)C(=O)O
recorded.endpoint: pKd
Units for pKd: none; it is -log10 of a concentration expressed in mol/L.

Ask | Find the recorded pKd belonging to CCCC[C@@H]1NC(=O)[C@@H]2CCCCNC(=O)c3cc(cc(c3)C(=O)N[C@@H](C)C(=O)N[C@H](Cc3ccccc3)C(=O)N[C@@H](Cc3c[nH]c4ccccc34)C(=O)N[C@H]([C@H](C)O)C(=O)N[C@@H](CCC(N)=O)C(=O)N2)C(=O)NC[C@@H](C(N)=O)NC(=O)[C@H](Cc2c[nH]cn2)NC(=O)[C@H](C)NC(=O)[C@@H](CC(C)C)NC1=O [Anticachexin C2] (A[dF]W[dT]QK[Nle][dL]AH[Dap]-NH2; linker N-6-11 via Trimesoyl; C-terminus assumed) and report it.
Reply | 5.13

The values you see were collected from paper PMC3856571.
